Ref: patent US6762170B1

- TARGET ENTITY: Adenosine 2a receptor (Homo sapiens, UniProt P29274)
- Construct: expressed in transfected cells; host or cells: Chinese hamster ovary (CHO) cells, co-transfected with a CRE-SPAP reporter
- Sequence (P29274 whole entry): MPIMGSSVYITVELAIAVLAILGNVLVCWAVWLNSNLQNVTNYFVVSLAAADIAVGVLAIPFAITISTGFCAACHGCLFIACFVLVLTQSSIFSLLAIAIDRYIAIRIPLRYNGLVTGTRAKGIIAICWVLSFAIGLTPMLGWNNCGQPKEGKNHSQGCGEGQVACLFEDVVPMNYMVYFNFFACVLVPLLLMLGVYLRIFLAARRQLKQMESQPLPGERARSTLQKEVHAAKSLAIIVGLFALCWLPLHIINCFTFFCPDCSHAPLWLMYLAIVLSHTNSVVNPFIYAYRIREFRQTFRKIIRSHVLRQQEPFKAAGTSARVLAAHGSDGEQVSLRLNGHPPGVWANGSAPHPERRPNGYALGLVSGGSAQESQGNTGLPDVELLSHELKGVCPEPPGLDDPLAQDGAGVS
- ASSAY OVERVIEW: Agonist activity against adenosine 2a receptor subtype (CHO cells, cAMP response element/SPAP reporter)
- Format: cell-based
- RUN PARAMETERS: EC50 ratio to NECA; transfected CHO cells, basal cAMP reflected by SPAP
We begin with a simple list: items and their reported A2a (EC50 values as a ratio of that of NECA).
Lab note: jot down the number only; don't add units.

Past entries and their recorded results:
1. CCc1cc(C2OC(n3cnc4c(NCC(c5ccccc5)c5ccccc5)nc(NC(CO)Cc5ccccc5)nc43)C(O)C2O)on1 (stereo not shown) [Example 17]
0.34
2. CCc1cc([C@H]2O[C@@H](n3cnc4c(NCC(c5ccccc5)c5ccccc5)nc(NCCNc5ccccn5)nc43)[C@H](O)[C@@H]2O)on1.O=CO.O=CO [Example 16]
0.35
3. CCc1cc(C2OC(n3cnc4c(NC(CO)Cc5ccccc5)nc(NCCNc5ccccn5)nc43)C(O)C2O)on1 (stereo not shown) [Example 62]
1.03

Now consider the entry below.
Briefly, A2a (EC50 values as a ratio of that of NECA) measured for CCc1cc(C2OC(n3cnc4c(NC(CO)C(C)C)nc(NCCN5CCCC5)nc43)C(O)C2O)on1 (stereo not shown) [Example 69] : 23.73

----------
We begin with a simple list: items and their reported A2a (EC50 values as a ratio of that of NECA).
- TARGET ENTITY: Adenosine 2a receptor (Homo sapiens, UniProt P29274)
- Construct: expressed in transfected cells; host or cells: Chinese hamster ovary (CHO) cells, co-transfected with a CRE-SPAP reporter
- ASSAY OVERVIEW: Agonist activity against adenosine 2a receptor subtype (CHO cells, cAMP response element/SPAP reporter)
- Type: cell-based
- RUN PARAMETERS: EC50 ratio to NECA; transfected CHO cells, basal cAMP reflected by SPAP

Briefly, A2a (EC50 values as a ratio of that of NECA) measured for CCc1cc(C2OC(n3cnc4c(NC(CC)CC)nc(NCCc5ccccn5)nc43)C(O)C2O)on1 (stereo not shown) [Example 37] : 2.65

----------
- TARGET ENTITY: Adenosine 3 receptor (Homo sapiens)
- Construct: expressed in transfected cells; host or cells: Chinese hamster ovary (CHO) cells, co-transfected with a CRE-SPAP reporter
- ASSAY OVERVIEW: Agonist activity against adenosine 3 receptor subtype (CHO cells, forskolin-enhanced cAMP, SPAP reporter)
- Type: cell-based
- RUN PARAMETERS: EC50 ratio to NECA; transfected CHO cells, forskolin-enhanced cAMP reflected by SPAP
We begin with a simple list: items and their reported A3 (EC50 values as a ratio of that of NECA).

Past entries and their recorded results:
1. CCc1cc(C2OC(n3cnc4c(NCCC5CCCCC5)nc(NC(CO)Cc5ccccc5)nc43)C(O)C2O)on1 (stereo not drawn)
>254
2. CCC(CC)Nc1nc(NCCN2CCCCC2)nc2c1ncn2C1OC(c2cc(CO)no2)C(O)C1O.O=CO.O=CO (stereo not drawn)
>525
3. CCc1cc(C2OC(n3cnc4c(NC(CO)Cc5ccccc5)nc(NCCN5CCCC5)nc43)C(O)C2O)on1 (stereo not drawn)
>262

Briefly, A3 (EC50 values as a ratio of that of NECA) measured for CCc1cc(C2OC(n3cnc4c(NC5CCN(C(C)=O)CC5)nc(NC5CCC(N)CC5)nc43)C(O)C2O)on1 (stereo not drawn) : >298

Briefly, A3 (EC50 values as a ratio of that of NECA) measured for CCc1cc([C@H]2O[C@@H](n3cnc4c(NC(CC)CC)nc(NCCNc5ccccn5)nc43)[C@H](O)[C@@H]2O)on1.O=CO.O=CO : >229

Briefly, A3 (EC50 values as a ratio of that of NECA) measured for CCc1cc(C2OC(n3cnc4c(NCCS(=O)(=O)NC)nc(NCCN5CCCCC5)nc43)C(O)C2O)on1 (stereo not drawn) : >303

Briefly, A3 (EC50 values as a ratio of that of NECA) measured for CCc1cc(C2OC(n3cnc4c(NC(CO)Cc5ccccc5)nc(NCCN5CCCCC5)nc43)C(O)C2O)on1 (stereo not drawn) : >189

Briefly, A3 (EC50 values as a ratio of that of NECA) measured for CCc1cc(C2OC(n3cnc4c(NC(CC)CC)nc(NCCNC(=N)N)nc43)C(O)C2O)on1 (stereo not drawn) : >88

Briefly, A3 (EC50 values as a ratio of that of NECA) measured for CCc1cc(C2OC(n3cnc4c(NCc5ccccc5)nc(NCCc5cn(C)cn5)nc43)C(O)C2O)on1 (stereo not drawn) : >335

----------
- TARGET ENTITY: Adenosine 1 receptor (Homo sapiens, UniProt P30542)
- Construct: expressed in transfected cells; host or cells: Chinese hamster ovary (CHO) cells, co-transfected with a CRE-SPAP reporter
- Sequence (P30542 whole entry): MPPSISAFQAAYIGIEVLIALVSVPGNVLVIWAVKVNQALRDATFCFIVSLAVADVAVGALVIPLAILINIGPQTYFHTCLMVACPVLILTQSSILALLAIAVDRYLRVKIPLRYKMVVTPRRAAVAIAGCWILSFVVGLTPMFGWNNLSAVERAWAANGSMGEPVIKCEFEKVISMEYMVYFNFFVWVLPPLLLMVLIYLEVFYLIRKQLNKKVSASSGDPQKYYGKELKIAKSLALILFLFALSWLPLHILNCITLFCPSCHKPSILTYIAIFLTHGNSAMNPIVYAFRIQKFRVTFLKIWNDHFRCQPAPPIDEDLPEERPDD
- ASSAY OVERVIEW: Agonist activity against adenosine 1 receptor subtype (CHO cells, forskolin-enhanced cAMP, SPAP reporter)
- Format: cell-based
- RUN PARAMETERS: EC50 ratio to NECA; transfected CHO cells, forskolin-enhanced cAMP reflected by SPAP
We begin with a simple list: items and their reported A1 (EC50 values as a ratio of that of NECA).
Lab note: jot down the number only; don't add units.

Past entries and their recorded results:
1) CCc1cc(C2OC(n3cnc4c(NC5CCN(C(C)=O)CC5)nc(NC(CO)Cc5ccccc5)nc43)C(O)C2O)on1 (stereo not shown)
165.8
2) CCc1cc(C2OC(n3cnc4c(NCc5ccccc5)nc(NCCc5cn(C)cn5)nc43)C(O)C2O)on1 (stereo not shown)
672.4
3) CCc1cc(C2OC(n3cnc4c(NC(CO)C(C)C)nc(NCCN5CCCCC5)nc43)C(O)C2O)on1 (stereo not shown)
149.86

Briefly, A1 (EC50 values as a ratio of that of NECA) measured for CCc1cc([C@H]2O[C@@H](n3cnc4c(NCC(c5ccccc5)c5ccccc5)nc(N[C@H]5CC[C@H](N)CC5)nc43)[C@H](O)[C@@H]2O)on1.O=CO.O=CO (relative stereo) : 670.2

----------
- TARGET ENTITY: Adenosine 3 receptor (Homo sapiens, UniProt P0DMS8)
- Construct: expressed in transfected cells; host or cells: Chinese hamster ovary (CHO) cells, co-transfected with a CRE-SPAP reporter
- Sequence (P0DMS8 1-318): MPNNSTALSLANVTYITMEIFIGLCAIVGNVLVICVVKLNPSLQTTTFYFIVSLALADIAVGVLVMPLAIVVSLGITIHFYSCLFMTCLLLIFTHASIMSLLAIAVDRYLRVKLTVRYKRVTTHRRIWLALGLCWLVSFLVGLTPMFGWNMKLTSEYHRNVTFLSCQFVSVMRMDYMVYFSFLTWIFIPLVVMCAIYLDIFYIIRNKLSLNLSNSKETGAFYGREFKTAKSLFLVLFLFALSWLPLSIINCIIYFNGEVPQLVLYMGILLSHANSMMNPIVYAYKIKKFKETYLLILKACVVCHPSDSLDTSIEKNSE
- ASSAY OVERVIEW: Agonist activity against adenosine 3 receptor subtype (CHO cells, forskolin-enhanced cAMP, SPAP reporter)
- Format: cell-based
- RUN PARAMETERS: EC50 ratio to NECA; transfected CHO cells, forskolin-enhanced cAMP reflected by SPAP
We begin with a simple list: items and their reported A3 (EC50 values as a ratio of that of NECA).

Past entries and their recorded results:
1) CCc1cc(C2OC(n3cnc4c(NC5CCSCC5)nc(NCCNC(=N)N)nc43)C(O)C2O)on1 (stereo not drawn)
>323
2) CCc1cc(C2OC(n3cnc4c(NCCS(=O)(=O)NC)nc(NCCNC(=N)N)nc43)C(O)C2O)on1 (stereo not drawn)
>198
3) CCC(CC)Nc1nc(NCCN2CCCCC2)nc2c1ncn2[C@@H]1O[C@H](c2cc(C(C)O)no2)[C@@H](O)[C@H]1O.O=CO.O=CO (stereo partly drawn)
>350
4) CCc1cc(C2OC(n3cnc4c(Nc5ccc(O)c(F)c5)nc(NCCN5CCCCC5)nc43)C(O)C2O)on1.O=CO.O=CO (stereo not drawn)
>180
5) CCc1cc(C2OC(n3cnc4c(NC(CC)CC)nc(NC(CO)Cc5ccccc5)nc43)C(O)C2O)on1 (stereo not drawn)
>223
6) CCc1cc(C2OC(n3cnc4c(NC(CC)CC)nc(NC5CCN(Cc6ccccc6)C5)nc43)C(O)C2O)on1 (stereo not drawn)
>350

Briefly, A3 (EC50 values as a ratio of that of NECA) measured for CCc1cc(C2OC(n3cnc4c(NC5CCS(=O)(=O)CC5)nc(NCCN5CCCCC5)nc43)C(O)C2O)on1.O=CO.O=CO (stereo not drawn) : >310

Briefly, A3 (EC50 values as a ratio of that of NECA) measured for CCc1cc(C2OC(n3cnc4c(NC(CO)C(C)C)nc(NCCNc5ccccn5)nc43)C(O)C2O)on1 (stereo not drawn) : >184

Briefly, A3 (EC50 values as a ratio of that of NECA) measured for CCc1cc(C2OC(n3cnc4c(NC5CCN(C(C)=O)CC5)nc(NC(CO)Cc5ccccc5)nc43)C(O)C2O)on1 (stereo not drawn) : >263

Briefly, A3 (EC50 values as a ratio of that of NECA) measured for CCc1cc([C@H]2O[C@@H](n3cnc4c(NC5CCSCC5)nc(NCCN5CCCCC5)nc43)[C@H](O)[C@@H]2O)on1.O=CO.O=CO : >410

Briefly, A3 (EC50 values as a ratio of that of NECA) measured for CCc1cc(C2OC(n3cnc4c(NCC(c5ccccc5)c5ccccc5)nc(NCCNC(=N)N)nc43)C(O)C2O)on1 (stereo not drawn) : >282

Briefly, A3 (EC50 values as a ratio of that of NECA) measured for CCC(CC)Nc1nc(NCCc2cn(C)cn2)nc2c1ncn2C1OC(c2cc(C=NO)no2)C(O)C1O (stereo not drawn) : >113
